experiment: RP, Merck Supelco Ascentis Express C18, 100 × 2.1 mm, 2 µm, 40 °C, 0.2 mL/min, estimated dead time 1.1 min; A: water + 0.1% formic acid, pH 3; B: acetonitrile + 0.1% formic acid, pH 3; gradient (min/%B) 0/5 2/5 17/99.9 20/99.9; details: stereoisomer not certain
endpointName: LC retention time
Report field: quantity (unit follows the number).

Take a look at these entries with their results.
CC12CCC(=O)C=C1CCC1C2CCC2(C)C1CCC2(O)C(=O)CO (stereo unspecified) [CORTEXOLONE]    9.16 min
O=C(O)c1ccc2ccccc2n1 [2-QUINOLINECARBOXYLATE]    4.63 min
O=C(O)c1ccc(O)c(O)c1 [3,4-DIHYDROXYBENZOATE]    3.06 min

Give the reported LC retention time for this compound. CCCCCCCCCCCCCC(=O)O [MYRISTATE]
16.4 min

Check the records and state LC retention time for CCCCCCCCC=CCCCCCCCC(=O)OCC(O)CO (stereo unspecified)
17.3 min

Read the entry O=C(O)c1ccc[nH]1 [PYRROLE-2-CARBOXYLATE] and write its reported LC retention time.
1.54 min

Output measured LC retention time for this item: "Cc1c[nH]c(=O)[nH]c1=O"
1.6 min

Answer with the recorded LC retention time for the compound listed here: O=C1CCC(C(=O)O)N1 (stereo unspecified)
1.34 min

Tell me its LC retention time given O=c1[nH]cnc2c1ncn2C1OC(CO)C(O)C1O (stereo unspecified) as the entry.
1.39 min

# return recorded LC retention time for input O=C(O)c1cc(O)ccc1O [2,5-DIHYDROXYBENZOATE]
4.65 min

Report measured LC retention time; entry is O=C([O-])CCCCCCC(=O)[O-] [SUBERATE]
6.08 min
